In this section we review reported IC50 values for a set of compounds.
biological target: human ENT1 (Homo sapiens, UniProt Q99808); construct: JAR cells expressing ENT1 were purchased from ATCC; host or cells: JAR cells; assay: ENT1 binding assay (competition with Sahenta-DY647 on JAR cells); conditions: competition with SAHENTA-DY647 binding; IC50 categorized; read-out: Binding Assay IC50
Sequence (Q99808 whole entry): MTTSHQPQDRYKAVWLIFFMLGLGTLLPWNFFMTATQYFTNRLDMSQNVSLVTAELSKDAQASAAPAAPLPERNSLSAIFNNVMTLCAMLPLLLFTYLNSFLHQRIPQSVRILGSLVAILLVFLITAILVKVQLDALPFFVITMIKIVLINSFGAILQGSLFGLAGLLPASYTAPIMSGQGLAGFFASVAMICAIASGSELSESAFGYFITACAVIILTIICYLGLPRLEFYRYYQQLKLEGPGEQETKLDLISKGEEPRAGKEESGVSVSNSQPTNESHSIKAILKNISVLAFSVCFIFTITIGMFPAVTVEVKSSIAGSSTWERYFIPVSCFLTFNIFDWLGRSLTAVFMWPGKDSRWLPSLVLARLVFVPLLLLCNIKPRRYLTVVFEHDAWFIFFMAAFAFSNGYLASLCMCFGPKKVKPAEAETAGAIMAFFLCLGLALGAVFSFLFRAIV

Some compounds with recorded IC50:
[[record]]
smiles_data = "C[C@H]1O[C@@H](n2cnc3c(NCc4cccc(-n5cccn5)c4)ncnc32)[C@H](O)[C@@H]1O"
reported_value = "> 500 nM"

[[record]]
smiles_data = "C[C@H]1O[C@@H](n2c(NC3CCOCC3)nc3c(N4CCc5ccc([N+](=O)[O-])cc5C4)ncnc32)[C@H](O)[C@@H]1O"
reported_value = "1 to 20 nM"

[[record]]
smiles_data = "Cc1cc(CSc2ncnc3c2ncn3[C@@H]2O[C@H](C)[C@@H](O)[C@H]2O)n(C)n1"
reported_value = "> 500 nM"


What value of IC50 has been reported for the following compound? "C[C@H]1O[C@@H](n2cnc3c(OCc4ccc(F)c(F)c4F)ncnc32)[C@H](O)[C@@H]1O"
> 500 nM

Ok, now "C[C@H]1O[C@@H](n2c(N[C@H]3C[C@@H](O)C3)nc3c(OCc4ccc(C#N)cc4)ncnc32)[C@H](O)[C@@H]1O"
1 to 20 nM

Ok, now "C[C@H]1O[C@@H](n2cnc3c(OCc4ccc(-c5ccn(C)n5)cc4)ncnc32)[C@H](O)[C@@H]1O"
> 500 nM

Ok, now "C[C@H]1O[C@@H](n2cnc3c(OCCc4ccc([N+](=O)[O-])nc4)ncnc32)[C@H](O)[C@@H]1O"
> 500 nM

Ok, now "C[C@H]1O[C@@H](n2c(N)nc3c(OCc4ccc([N+](=O)[O-])cc4)ncnc32)[C@H](O)[C@@H]1O"
20 to 500 nM

The reported measurements were obtained from patent US20260184712A1.
